MEASUREMENT_TARGET: MET (cMet) (Homo sapiens)
Sequence (P08581 25-1390): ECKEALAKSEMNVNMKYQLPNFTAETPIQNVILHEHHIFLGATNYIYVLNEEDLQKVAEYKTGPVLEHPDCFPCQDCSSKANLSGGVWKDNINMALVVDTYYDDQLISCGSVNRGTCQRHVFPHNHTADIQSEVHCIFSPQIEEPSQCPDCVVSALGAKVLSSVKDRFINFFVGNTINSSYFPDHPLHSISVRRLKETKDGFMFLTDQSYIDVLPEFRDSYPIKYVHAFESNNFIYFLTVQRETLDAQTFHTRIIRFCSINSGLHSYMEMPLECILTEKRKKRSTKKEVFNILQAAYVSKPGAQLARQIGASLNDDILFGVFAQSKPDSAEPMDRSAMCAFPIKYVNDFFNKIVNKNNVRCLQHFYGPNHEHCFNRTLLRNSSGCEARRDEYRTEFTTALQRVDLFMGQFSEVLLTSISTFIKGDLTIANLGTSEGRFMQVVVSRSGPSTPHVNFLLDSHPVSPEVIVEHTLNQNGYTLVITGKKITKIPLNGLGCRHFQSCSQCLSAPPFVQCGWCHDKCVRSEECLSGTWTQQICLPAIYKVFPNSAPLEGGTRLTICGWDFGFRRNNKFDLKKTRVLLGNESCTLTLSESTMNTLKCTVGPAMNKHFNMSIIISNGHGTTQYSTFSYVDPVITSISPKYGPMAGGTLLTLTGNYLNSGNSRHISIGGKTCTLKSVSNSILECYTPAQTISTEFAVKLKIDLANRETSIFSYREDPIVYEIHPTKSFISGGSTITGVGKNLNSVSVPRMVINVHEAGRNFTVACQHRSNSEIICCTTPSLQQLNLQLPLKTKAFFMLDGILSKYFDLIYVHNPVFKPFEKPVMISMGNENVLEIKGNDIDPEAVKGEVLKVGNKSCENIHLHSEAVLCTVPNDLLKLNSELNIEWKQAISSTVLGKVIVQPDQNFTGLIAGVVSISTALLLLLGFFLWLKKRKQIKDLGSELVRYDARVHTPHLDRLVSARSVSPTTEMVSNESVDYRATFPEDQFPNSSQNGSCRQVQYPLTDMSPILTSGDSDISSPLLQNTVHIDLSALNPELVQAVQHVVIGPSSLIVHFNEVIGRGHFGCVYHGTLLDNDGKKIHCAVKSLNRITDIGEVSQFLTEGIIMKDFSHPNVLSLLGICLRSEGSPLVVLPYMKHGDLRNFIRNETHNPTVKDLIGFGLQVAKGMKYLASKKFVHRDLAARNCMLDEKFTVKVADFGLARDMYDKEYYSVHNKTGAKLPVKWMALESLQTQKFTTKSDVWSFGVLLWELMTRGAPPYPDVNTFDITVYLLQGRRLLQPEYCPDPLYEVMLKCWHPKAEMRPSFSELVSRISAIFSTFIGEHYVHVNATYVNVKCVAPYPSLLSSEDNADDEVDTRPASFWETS
ASSAY_COMMENT: Tyrosine kinase inhibition assay
Format: biochemical
CONDITION: single concentration 1.0 μM, read-out: percent inhibition
Description: Tyrosine kinase inhibition assays were performed at ThermoFisher Life Technologies (Madison, WI, USA) using standard protocols (SelectScreen Biochemical Profiling Service, Thermo Fisher Scientific). ATP concentrations used were at the apparent Km. […] The apparent ATP Km was previously determined using a Z′-LYTE assay. […] The inhibition activities of compounds were determined in biochemical assays using single concentration (1.0 μM) measurements. […]
REPORTED_PROPERTY: inhibition at 1 µM (%)
Numbers only; they are read as %.

{"columns": ["CHEMICAL_SMILES", "RECORDED_MEASUREMENT"],
 "data": [
  ["COc1cc2nccc(Oc3ccc(NC(=O)C4(NC(=O)c5ccc(F)cc5)CC4)cc3F)c2cc1Oc1c(F)cc(N)cc1F", 97],
  ["COc1cc2nccc(Oc3ccc(NC(=O)C4(C(=O)Nc5ccc(F)cc5)CC4)cc3F)c2cc1Oc1ccc(N)cc1F", 98],
  ["COc1cc2nccc(Oc3ccc(NC(=O)C4(NC(=O)c5ccc(F)cc5)CC4)cc3F)c2cc1Oc1ccc(N)cc1F", 95]
]}

input: Give MET (cMet) (Homo sapiens) inhibition at 1 µM for the following compound: COc1cc2nccc(Oc3ccc(NC(=O)C4(NC(=O)c5ccc(F)cc5)CC4)cc3F)c2cc1OC
output: 100

###

Catalogue of inhibition at 1 µM values
MEASUREMENT_TARGET: UniProtKB P54764
Sequence (P54764 20-986): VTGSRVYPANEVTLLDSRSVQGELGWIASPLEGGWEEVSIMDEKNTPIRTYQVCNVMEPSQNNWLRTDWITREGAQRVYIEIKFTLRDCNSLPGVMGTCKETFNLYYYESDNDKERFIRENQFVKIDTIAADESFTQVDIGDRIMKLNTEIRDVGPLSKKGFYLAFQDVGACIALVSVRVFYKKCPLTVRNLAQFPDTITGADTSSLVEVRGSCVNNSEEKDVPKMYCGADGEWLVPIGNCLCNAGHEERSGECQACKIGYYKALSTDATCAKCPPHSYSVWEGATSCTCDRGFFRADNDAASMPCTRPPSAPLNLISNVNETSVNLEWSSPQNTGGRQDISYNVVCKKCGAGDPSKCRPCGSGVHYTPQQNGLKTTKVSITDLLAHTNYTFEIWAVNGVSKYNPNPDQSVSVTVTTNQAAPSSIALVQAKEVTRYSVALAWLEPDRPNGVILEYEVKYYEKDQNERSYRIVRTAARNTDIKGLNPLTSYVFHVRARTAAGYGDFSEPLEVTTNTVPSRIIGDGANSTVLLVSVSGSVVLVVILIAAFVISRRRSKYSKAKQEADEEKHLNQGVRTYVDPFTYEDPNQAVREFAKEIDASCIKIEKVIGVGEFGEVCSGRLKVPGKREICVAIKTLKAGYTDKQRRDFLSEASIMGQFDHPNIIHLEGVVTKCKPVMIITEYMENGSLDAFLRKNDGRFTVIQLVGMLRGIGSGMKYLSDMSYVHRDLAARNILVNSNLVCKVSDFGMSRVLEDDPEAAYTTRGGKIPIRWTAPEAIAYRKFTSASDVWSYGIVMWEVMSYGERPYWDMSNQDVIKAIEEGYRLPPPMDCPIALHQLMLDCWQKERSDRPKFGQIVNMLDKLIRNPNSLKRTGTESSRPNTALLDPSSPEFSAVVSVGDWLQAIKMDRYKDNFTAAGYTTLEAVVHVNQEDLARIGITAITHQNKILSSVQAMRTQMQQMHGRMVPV
ASSAY_COMMENT: Tyrosine kinase inhibition assay
Format: biochemical
CONDITION: single concentration 1.0 μM, read-out: percent inhibition
The reply should contain only the number, in %.

{"columns": ["COMPOUND", "REPORTED_PROPERTY", "RECORDED_MEASUREMENT"],
 "data": [
  ["COc1cc2nccc(Oc3ccc(NC(=O)C4(NC(=O)c5ccc(F)cc5)CC4)cc3F)c2cc1Oc1ccc(N)cc1F", "inhibition at 1 µM", 91],
  ["COc1cc2nccc(Oc3ccc(NC(=O)C4(C(=O)Nc5ccc(F)cc5)CC4)cc3F)c2cc1Oc1ccc(N)cc1F", "inhibition at 1 µM", 100],
  ["COc1cc2nccc(Oc3ccc(NC(=O)C4(NC(=O)c5ccc(F)cc5)CC4)cc3F)c2cc1OC", "inhibition at 1 µM", 79],
  ["COc1cc2nccc(Oc3ccc(NC(=O)C4(NC(=O)c5ccc(F)cc5)CC4)cc3F)c2cc1Oc1c(F)cc(N)cc1F", "inhibition at 1 µM", 89]
]}

Switching to the query record.
input: State the measured inhibition at 1 µM (UniProtKB P54764) of COc1cc2nccc(Oc3ccc(NC(=O)C4(C(=O)Nc5ccc(F)cc5)CC4)cc3)c2cc1OC [Cabozantinib, reference compound]
output: 100

###

MEASUREMENT_TARGET: PIK3CB/PIK3R1 (p110 beta/p85 alpha) (Homo sapiens)
Sequence (P42338 whole entry): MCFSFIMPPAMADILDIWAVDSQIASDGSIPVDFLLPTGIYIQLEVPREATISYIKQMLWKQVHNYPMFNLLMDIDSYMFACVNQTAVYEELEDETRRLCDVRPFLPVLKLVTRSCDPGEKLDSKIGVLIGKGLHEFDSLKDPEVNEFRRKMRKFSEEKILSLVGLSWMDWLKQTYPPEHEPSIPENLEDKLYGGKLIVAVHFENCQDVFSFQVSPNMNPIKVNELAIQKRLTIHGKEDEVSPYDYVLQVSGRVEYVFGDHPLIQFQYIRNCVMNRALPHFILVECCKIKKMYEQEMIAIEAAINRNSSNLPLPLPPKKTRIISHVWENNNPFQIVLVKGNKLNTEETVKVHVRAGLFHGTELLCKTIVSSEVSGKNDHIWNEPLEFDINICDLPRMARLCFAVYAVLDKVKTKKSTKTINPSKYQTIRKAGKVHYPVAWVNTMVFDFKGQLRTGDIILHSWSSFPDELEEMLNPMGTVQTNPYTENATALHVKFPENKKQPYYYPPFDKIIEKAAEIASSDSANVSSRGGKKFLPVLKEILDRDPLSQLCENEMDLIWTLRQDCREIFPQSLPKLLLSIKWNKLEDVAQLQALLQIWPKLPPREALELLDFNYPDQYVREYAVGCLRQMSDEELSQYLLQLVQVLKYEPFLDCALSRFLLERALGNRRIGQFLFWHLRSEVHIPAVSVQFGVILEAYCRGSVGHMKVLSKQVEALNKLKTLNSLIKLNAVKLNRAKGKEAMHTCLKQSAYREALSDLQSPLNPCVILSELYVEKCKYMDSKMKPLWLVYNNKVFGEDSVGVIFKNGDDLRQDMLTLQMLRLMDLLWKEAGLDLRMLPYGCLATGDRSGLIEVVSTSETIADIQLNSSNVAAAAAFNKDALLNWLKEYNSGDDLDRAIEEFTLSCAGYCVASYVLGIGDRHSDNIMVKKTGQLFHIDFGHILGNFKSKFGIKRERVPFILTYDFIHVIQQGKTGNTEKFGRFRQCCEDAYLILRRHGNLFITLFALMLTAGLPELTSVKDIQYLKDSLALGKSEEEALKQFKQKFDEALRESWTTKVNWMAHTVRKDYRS
Sequence (P27986 whole entry partner): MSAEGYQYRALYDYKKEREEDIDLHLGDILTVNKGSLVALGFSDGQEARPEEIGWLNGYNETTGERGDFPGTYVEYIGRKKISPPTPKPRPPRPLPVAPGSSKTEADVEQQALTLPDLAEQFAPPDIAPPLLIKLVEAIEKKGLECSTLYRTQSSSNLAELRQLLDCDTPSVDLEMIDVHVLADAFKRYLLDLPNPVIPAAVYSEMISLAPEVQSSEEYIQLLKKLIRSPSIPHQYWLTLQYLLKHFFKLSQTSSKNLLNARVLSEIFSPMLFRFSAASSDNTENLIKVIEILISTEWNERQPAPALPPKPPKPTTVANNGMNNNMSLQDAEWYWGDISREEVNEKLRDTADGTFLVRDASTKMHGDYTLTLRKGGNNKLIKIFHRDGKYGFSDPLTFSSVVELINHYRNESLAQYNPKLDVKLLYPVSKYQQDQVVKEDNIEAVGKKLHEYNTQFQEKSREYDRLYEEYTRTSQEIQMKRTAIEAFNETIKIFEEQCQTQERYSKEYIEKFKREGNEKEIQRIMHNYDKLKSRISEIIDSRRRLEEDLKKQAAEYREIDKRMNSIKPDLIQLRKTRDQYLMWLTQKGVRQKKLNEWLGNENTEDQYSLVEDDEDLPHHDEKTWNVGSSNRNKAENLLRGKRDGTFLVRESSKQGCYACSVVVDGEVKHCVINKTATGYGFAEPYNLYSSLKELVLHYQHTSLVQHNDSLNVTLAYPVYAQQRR
ASSAY_COMMENT: Tyrosine kinase inhibition assay
Assay type: biochemical
CONDITION: single concentration 1.0 μM, read-out: percent inhibition
Experimental: Tyrosine kinase inhibition assays were performed at ThermoFisher Life Technologies (Madison, WI, USA) using standard protocols (SelectScreen Biochemical Profiling Service, Thermo Fisher Scientific). ATP concentrations used were at the apparent Km. […] The apparent ATP Km was previously determined using a Z′-LYTE assay. […] The inhibition activities of compounds were determined in biochemical assays using single concentration (1.0 μM) measurements. […]
Measured inhibition at 1 µM values are reported for all entries that follow.
Give your result in % as a bare value.

Use these answered entries as a reference point.
{"columns": ["COMPOUND", "READOUT_UNIT", "RECORDED_MEASUREMENT"],
 "data": [
  ["COc1cc2nccc(Oc3ccc(NC(=O)C4(NC(=O)c5ccc(F)cc5)CC4)cc3F)c2cc1OC", "%", 3],
  ["COc1cc2nccc(Oc3ccc(NC(=O)C4(NC(=O)c5ccc(F)cc5)CC4)cc3F)c2cc1Oc1c(F)cc(N)cc1F", "%", 0],
  ["COc1cc2nccc(Oc3ccc(NC(=O)C4(C(=O)Nc5ccc(F)cc5)CC4)cc3F)c2cc1Oc1ccc(N)cc1F", "%", -4]
]}

input: Fill in inhibition at 1 µM for record COc1cc2nccc(Oc3ccc(NC(=O)C4(NC(=O)c5ccc(F)cc5)CC4)cc3F)c2cc1Oc1ccc(N)cc1F
output: 22

input: Look up and state reported inhibition at 1 µM for COc1cc2nccc(Oc3ccc(NC(=O)C4(C(=O)Nc5ccc(F)cc5)CC4)cc3)c2cc1OC [Cabozantinib, reference compound]
output: 2
